TARGET: T1, rat IL-25 expressed with a C-terminal myc-myc-hexahistidine tag (rat)
T1 construct: also called Rat IL-25-MMH
T1 chain: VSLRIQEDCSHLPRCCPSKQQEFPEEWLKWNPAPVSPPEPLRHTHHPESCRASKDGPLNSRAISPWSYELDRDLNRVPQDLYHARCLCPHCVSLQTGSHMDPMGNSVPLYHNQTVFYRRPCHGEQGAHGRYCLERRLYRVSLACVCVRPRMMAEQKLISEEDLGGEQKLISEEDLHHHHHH
TEST SUMMARY: SPR Biacore, antibody captured, 37C
OBSERVABLE: kon (M⁻¹ s⁻¹)
# output: bare number, implied unit M⁻¹ s⁻¹

Example entries begin here.
BINDER	kon / M⁻¹ s⁻¹
H4H10897P (antibody, human IgG4, V domains shown, H4H prefix = human IgG4 Fc) VH: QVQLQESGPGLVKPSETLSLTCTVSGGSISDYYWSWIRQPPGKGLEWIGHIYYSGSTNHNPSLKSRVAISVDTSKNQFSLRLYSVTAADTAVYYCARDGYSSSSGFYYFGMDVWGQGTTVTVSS VL: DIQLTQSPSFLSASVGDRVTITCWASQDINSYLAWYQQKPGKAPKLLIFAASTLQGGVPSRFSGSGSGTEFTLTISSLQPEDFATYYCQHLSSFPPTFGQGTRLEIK	245000
H4H10876P (antibody, human IgG4, V domains shown, H4H prefix = human IgG4 Fc) VH: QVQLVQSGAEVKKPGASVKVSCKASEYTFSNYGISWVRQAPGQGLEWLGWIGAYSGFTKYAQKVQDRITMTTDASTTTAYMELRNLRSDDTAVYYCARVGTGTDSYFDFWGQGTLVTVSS VL: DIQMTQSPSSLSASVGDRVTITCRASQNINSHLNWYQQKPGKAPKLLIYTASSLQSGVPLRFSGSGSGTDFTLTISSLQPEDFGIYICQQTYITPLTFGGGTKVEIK	450000

Next binder, please.
Prompt: Param item = H4H10871P (antibody, human IgG4, V domains shown, H4H prefix = human IgG4 Fc) VH: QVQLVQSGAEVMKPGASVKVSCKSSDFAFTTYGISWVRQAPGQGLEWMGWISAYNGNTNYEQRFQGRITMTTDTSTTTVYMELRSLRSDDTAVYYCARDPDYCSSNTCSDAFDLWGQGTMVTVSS VL: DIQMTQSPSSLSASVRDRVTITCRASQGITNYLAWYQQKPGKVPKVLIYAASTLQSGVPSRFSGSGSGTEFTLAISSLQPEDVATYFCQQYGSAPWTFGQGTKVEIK ; retrieve measured kon.
Response: 937000

Each recorded value in this set is attributed to patent US20160083466A1.
